Each recorded value in this set is attributed to PubChem BioAssay.

# protocol: A549 lung cancer cell viability effects, profiling panel, resazurin fluorescence, 24 h, PK04 Diversity Set (AID 1171); also: test concentration not given here
# testContext: higher = more signal, called active from +8 up or from −8 down
# z-score >= 0.1 gives True, anything below gives False

Solved entries (count: 5):
molecule	assignedLabel
C=C(COC)/C(=C/C[C@@H](OC(C)=O)c1ccc(OCCO)cc1)c1cc(C(=O)OC)ccc1OC	True
O=C1c2ccccc2[C@](Cc2ccccc2I)(C(=O)NC2CC2)[C@H](c2ccc(CO)cc2)N1Cc1ccccc1	True
C=CCOC(=O)[C@@H]1[C@H]2C(=O)O[C@H](c3ccccc3)[C@H](c3ccccc3)N2[C@H](c2ccc(OCCOC(=O)[C@@H]3C[C@@H]4C(=O)N5CCC[C@H]5C(=O)N4[C@@H]3c3ccc(O)cc3)cc2)[C@@]12C(=O)Nc1ccc(I)cc12	False
CN1C(=O)C2C=CC(C(O)c3cc(C(F)(F)F)cc(C(F)(F)F)c3)N(N3CCCCC3)C2C1=O (configuration not stated)	True
CC(C)N1C(=O)[C@@]2(Cc3ccccc31)c1ccccc1C(=O)N(C1CCCCC1)[C@H]2c1ccc(CO)cc1	True

INPUT: Is z-score for O=C1O[C@H](c2ccccc2)[C@H](c2ccccc2)N2[C@H]1[C@@H](C(=O)N1CCN(c3ncccn3)CC1)[C@]1(C(=O)Nc3ccc(C#CC4=CCCCC4)cc31)[C@H]2c1ccc(O)cc1 at or above 0.1?
OUTPUT: False

INPUT: Is z-score for CC(C)(C)OC(=O)CC[C@@]1(C(=O)NCC(O)CO)N=C(c2ccc(OCCCO)cc2)O[C@@H]1c1ccccc1N=[N+]=[N-] (some centres not stated) at or above 0.1?
OUTPUT: True

###

# targetUnderTest: NADPH oxidase 4 (Homo sapiens)
# protocol: NOX4-dependent H2O2 signal modulators, primary screen, NOX inhibitor project, cell-based, HEK293-NOX4, tetracycline-induced, Amplex Red fluorescence (AID 1160)
# testContext: 45 min, higher = more signal, called active from +8 up or from −8 down
The source made the active and inactive calls.
readoutType: z-score

compound	z-score
COc1ccc(C(O)C2C=CC3C(=O)N(c4ccccc4)C(=O)C3N2Nc2ccc(C(C)C)cc2)cc1OCc1ccccc1 (centres undefined)	-2.55 (inactive)
CCOC(=O)[C@H]1C/C=C/C[C@H](C(=O)OCC)C(=O)O[C@H]2[C@@H](OC)O[C@H](CO)[C@@H](OC(=O)Nc3cccc(F)c3)[C@@H]2OC1=O	-0.389 (inactive)

INPUT: Query the reported z-score for NADPH oxidase 4 (Homo sapiens); item: CCCC#C[Si](O[C@H](CC)c1cn([C@H](CO)Cc2ccccc2)nn1)(C(C)C)C(C)C
OUTPUT: 0.272 (inactive)

INPUT: Query the reported z-score for NADPH oxidase 4 (Homo sapiens); item: CCCCC=C[C@@H](NC(=O)Oc1cccc(C(F)(F)F)c1)c1ccccc1
OUTPUT: -3.48 (inactive)

INPUT: Query the reported z-score for NADPH oxidase 4 (Homo sapiens); item: C#CCN(CC=C(C)C)[C@H](CO)c1ccccc1
OUTPUT: -0.102 (inactive)

INPUT: Query the reported z-score for NADPH oxidase 4 (Homo sapiens); item: CCCCCCC#C[Si](O[C@H](c1ccccc1)c1cn([C@H](CO)Cc2ccccc2)nn1)(C(C)C)C(C)C
OUTPUT: -0.227 (inactive)

INPUT: Query the reported z-score for NADPH oxidase 4 (Homo sapiens); item: COCCOC(=O)N1C(=O)[C@@]2(c3ccccc31)[C@H](c1ccc(O)cc1)N1[C@H](c3ccccc3)[C@H](c3ccccc3)OC(=O)[C@H]1[C@@H]2C(=O)NC[C@H](O)c1ccccc1
OUTPUT: 0.0245 (inactive)

INPUT: Query the reported z-score for NADPH oxidase 4 (Homo sapiens); item: CC(=O)n1cc(C(O)C2C=CC3C(=O)N(C)C(=O)C3N2Nc2ccccc2)c2ccccc21 (centres undefined)
OUTPUT: -3.46 (inactive)

INPUT: Query the reported z-score for NADPH oxidase 4 (Homo sapiens); item: CN(C)C(=O)[C@@]1(Cc2ccccc2CN=[N+]=[N-])N=C(c2ccc(OCCCO)cc2)O[C@H]1c1ccccc1
OUTPUT: -0.0483 (inactive)

INPUT: Query the reported z-score for NADPH oxidase 4 (Homo sapiens); item: COCCOC(=O)N1C(=O)[C@@]2(c3cc(C#CCNC(N)=O)ccc31)[C@H](C(=O)NC[C@H](O)c1ccccc1)[C@H]1C(=O)O[C@H](c3ccccc3)[C@H](c3ccccc3)N1[C@@H]2c1ccccc1OCCO
OUTPUT: 1.63 (inactive)

INPUT: Query the reported z-score for NADPH oxidase 4 (Homo sapiens); item: O=C(NCc1ccccc1)[C@@]1(Cc2ccccc2)N=C(c2ccc(OCCCO)cc2)O[C@H]1c1ccccc1
OUTPUT: 0.98 (inactive)

INPUT: Query the reported z-score for NADPH oxidase 4 (Homo sapiens); item: C=CCOC(=O)[C@H]1[C@@H]2C(=O)O[C@@H](c3ccccc3)[C@@H](c3ccccc3)N2[C@@H](c2ccc(OCCOC(=O)[C@@H]3C[C@@H]4C(=O)N5CCC[C@H]5C(=O)N4[C@@H]3c3cccc(OCCO)c3)cc2)[C@]12C(=O)Nc1ccccc12
OUTPUT: 0.917 (inactive)

INPUT: Query the reported z-score for NADPH oxidase 4 (Homo sapiens); item: CN(C)CCCNC(=O)[C@@]1(c2ccc([N+](=O)[O-])cc2)CC(=O)N(C2CCCCC2)[C@@H]1c1ccc(CO)cc1I
OUTPUT: -2.52 (inactive)

INPUT: Query the reported z-score for NADPH oxidase 4 (Homo sapiens); item: CC1CC/C=C\[C@H]2OC34C=CCN(c5ccc(Cl)cc5)C(=O)[C@H]3N(CCO)C(=O)[C@]4(C)C2C(=O)O1 (some centres undefined)
OUTPUT: 0.741 (inactive)

###

Reported composite z-score values for a set of molecules
# System: PRMT1 (protein arginine N-methyltransferase 1)
# protocol: PRMT1 binders on small-molecule microarrays, primary screen, biochemical, small-molecule microarray, 635 nm fluorescence (AID 1088);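 also: binding of Prmt1 protein to compounds spotted on small-molecule microarray slides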
# testContext: small-molecule microarray binding, higher = more signal
Number only, please.

Examples with answers:
molecule	composite z-score
CC(C)(C)OC(=O)CC[C@@]1(C(=O)NCCN2CCOCC2)N=C(c2ccc(OCCCO)cc2)O[C@@H]1c1ccccc1N=[N+]=[N-]	1.45
C=C(COC)/C(=C/C[C@H](OC(=O)c1ccncc1)c1ccc(OCCO)cc1)c1cnc2ccccc2c1	1.53
COCCOC(=O)N1C(=O)[C@@]2(c3cc(C#Cc4ccc(OC)cc4)ccc31)[C@H](c1ccccc1OCCO)N1[C@H](c3ccccc3)[C@H](c3ccccc3)OC(=O)[C@H]1[C@@H]2C(=O)N1CCN(c2ncccn2)CC1	1.35
O=C1[C@H]2C=C(Br)[C@H](C[C@@H]2c2ccccc2)[C@@]12CO2	0.366

INPUT: Item COc1cc2c(cc1O)C(C1CC1)N(Cc1cc3c(cc1Br)OCO3)CC2 (centres undefined) has what recorded composite z-score?
OUTPUT: -0.221

INPUT: Item COC(=O)[C@@]1(Cc2ccc(F)cc2)[C@@H]2[C@@H](CC(=O)[C@H]2CC(=O)C(=O)N(C)C)CN1C(=O)c1ccccc1 has what recorded composite z-score?
OUTPUT: 0.781

INPUT: Item CCCCC(=C=CC[C@@H](O)c1ccccc1OCCO)CCO has what recorded composite z-score?
OUTPUT: -0.144

INPUT: Item O=C1O[C@H](c2ccccc2)[C@H](c2ccccc2)N2[C@H]1[C@@H](C(=O)NC[C@H](O)c1ccccc1)[C@]1(C(=O)Nc3ccccc31)[C@H]2c1ccc(OCCO)cc1 has what recorded composite z-score?
OUTPUT: 1.58

INPUT: Item N#Cc1ccc(NN2C(C(O)c3c(F)cccc3Cl)C=CC3C(=O)N(c4ccccc4)C(=O)C32)cc1 (centres undefined) has what recorded composite z-score?
OUTPUT: 1.19

INPUT: Item COc1cc2c(cc1OC)CN(C(=O)[C@H]1[C@@H]3C(=O)O[C@@H](c4ccccc4)[C@@H](c4ccccc4)N3[C@@H](c3ccc(O)cc3)[C@]13C(=O)Nc1ccc(C#CC4=CCCCC4)cc13)CC2 has what recorded composite z-score?
OUTPUT: 1.51

INPUT: Item C[C@@H]1ON(c2cccc(C(=O)OC(C)(C)C)c2)[C@H](c2ccc(Br)cc2)[C@H]1C(=O)N1C(=O)OC[C@H]1Cc1ccccc1 has what recorded composite z-score?
OUTPUT: 1.54

INPUT: Item [N-]=[N+]=NCc1ccccc1C[C@]1(C(=O)N2CCOCC2)N=C(c2ccc(OCCCO)cc2)O[C@H]1c1ccccc1N=[N+]=[N-] has what recorded composite z-score?
OUTPUT: 1.41

###

# System: Human papillomavirus type 1a E7 protein (residues 1-88)
# protocol: HPV1a E7 small-molecule binders, primary screen, biochemical, small-molecule microarray, residues 1-88, 635 nm (AID 1129)
# testContext: small-molecule microarray binding, fluorescence 635 nm; higher = more signal
Reported composite z-score values for a set of compounds

Examples with answers:
compound	targetUnderTest	composite z-score
NCCCCCNC(=O)[C@@H]1C[C@@H]2C(=O)N[C@@H](Cc3ccccc3)C(=O)N2[C@@H]1c1cccc(OCCO)c1	Human papillomavirus type 1a E7 protein (residues 1-88)	-0.074
C=CCOC(=O)[C@H]1[C@@H]2C(=O)O[C@@H](c3ccccc3)[C@@H](c3ccccc3)N2[C@@H](c2ccc(OCCOC(=O)[C@@H]3C[C@@H]4C(=O)N[C@@H](CCCCN(C)C)C(=O)N4[C@@H]3c3ccc(O)cc3)cc2)[C@]12C(=O)Nc1ccc(I)cc12	Human papillomavirus type 1a E7 protein (residues 1-88)	1.22
CCCCC(O)C1C=CC2C(=O)N(c3ccccc3)C(=O)C2N1Nc1ccccc1F (stereo not given)	Human papillomavirus type 1a E7 protein (residues 1-88)	1.11
CCCCC(=C=CC[C@@H](O)c1ccccc1OCCO)CCO	Human papillomavirus type 1a E7 protein (residues 1-88)	-0.21

Attention now shifts to the item below.
INPUT: Item CN1C(=O)C2C=CC(C(O)C3CC=CCC3)N(NC(=O)OC(C)(C)C)C2C1=O (stereo not given) has what recorded composite z-score?
OUTPUT: 0.889
